The reported numbers originate from patent US20240199647A1.

System: SARS-CoV-2 B.1.1.7 lineage
RUN DESCRIPTION: microbe, parasite or virus in culture
Format: cell-based
RUN PARAMETERS: Severe acute respiratory syndrome coronavirus 2; Table C; SARS-CoV-2 B.1.1.7 in A549-dual_ACE2_TMPRSS2 cells, class symbols; read-out: A549-dual_ACE2_TMPRSS2 (EC50)
A collection of compounds and their measured EC50
PROPERTY NAME: EC50

INSERT INTO measurements (compound, test_target, property_name, reported) VALUES
  ('CN(C(=O)[C@H](CC1CC1)NC(=O)C(F)(F)F)[C@@H](CC1CC1)C(=O)N1C[C@@]2(C[C@H]1C#N)Oc1cccc(F)c1NC2=O', 'SARS-CoV-2 B.1.1.7 lineage', 'EC50', '< 0.1 µM'),
  ('CN(C(=O)[C@H](CC1CC1)NC(=O)C(F)(F)F)[C@@H](CC1CC1)C(=O)N1C[C@@]2(C[C@H]1C#N)Oc1cc(C(=O)N3CCOCC3)ccc1NC2=O', 'SARS-CoV-2 B.1.1.7 lineage', 'EC50', '0.1 to 1 µM'),
  ('CN(C(=O)[C@@H](NC(=O)C(F)(F)F)C1CC1)[C@@H](CC1CC1)C(=O)N1C[C@@]2(C[C@H]1C#N)Oc1cc(F)cc(F)c1NC2=O', 'SARS-CoV-2 B.1.1.7 lineage', 'EC50', '< 0.1 µM'),
  ('CC(C)C[C@@H](C(=O)N1C[C@]2(CC(C)NC2=O)C[C@H]1C#N)N(C)C(=O)[C@H](C)NC(=O)C(F)(F)F (some centres unmarked)', 'SARS-CoV-2 B.1.1.7 lineage', 'EC50', '0.1 to 1 µM'),
  ('C[C@H](NC(=O)C(F)(F)F)C(=O)N(C)[C@@H](CC1CC1)C(=O)N1C[C@@]2(C[C@H]1C#N)Oc1cccc(F)c1NC2=O', 'SARS-CoV-2 B.1.1.7 lineage', 'EC50', '< 0.1 µM'),
  ('N#C[C@@H]1C[C@]2(CN1C(=O)[C@H](CC1CC1)NC(=O)[C@H](CC1CC1)NC(=O)C(F)(F)F)Oc1cc(F)cc(F)c1NC2=O', 'SARS-CoV-2 B.1.1.7 lineage', 'EC50', '0.1 to 1 µM'),
  ('CN(C(=O)[C@H](CC1CC1)NC(=O)C(F)(F)F)[C@@H](CC(C)(C)C)C(=O)N1C[C@@]2(C[C@H]1C#N)Oc1ccccc1CNC2=O', 'SARS-CoV-2 B.1.1.7 lineage', 'EC50', '< 0.1 µM'),
  ('COc1cccc(C[C@@H](NC(=O)C(F)(F)F)C(=O)N(C)[C@@H](CC2CC2)C(=O)N2C[C@@]3(C[C@H]2C#N)Oc2cccnc2NC3=O)c1', 'SARS-CoV-2 B.1.1.7 lineage', 'EC50', '< 0.1 µM'),
  ('CC(C)OC(=O)N[C@@H](C)C(=O)N(C)[C@@H](CC1CC1)C(=O)N1C[C@@]2(C[C@H]1C#N)Oc1cc(F)cc(F)c1NC2=O', 'SARS-CoV-2 B.1.1.7 lineage', 'EC50', '0.1 to 1 µM'),
  ('C[C@H](NC(=O)C(F)(F)Cl)C(=O)N(C)[C@@H](CC1CC1)C(=O)N1C[C@@]2(CC1C#N)Oc1cccnc1NC2=O (some centres unmarked)', 'SARS-CoV-2 B.1.1.7 lineage', 'EC50', '< 0.1 µM'),
  ('CC(C)C[C@@H](C(=O)N1C[C@]2(CC(C(C)C)NC2=O)C[C@H]1C#N)N(C)C(=O)[C@H](C)NC(=O)C(F)(F)F (some centres unmarked)', 'SARS-CoV-2 B.1.1.7 lineage', 'EC50', '0.1 to 1 µM');
